Could you please report measured minimal effective concentration for the items listed next?
- Test system: annual sugar beet variety (SLC03)
- measurement.protocol: Plant growth regulator activity, postemergence
- Assay type: in vivo
- measurement.context: Beta vulgaris, post-emergence, 672 h, 4 weeks after spraying; read-out: Bolting Inhibition (postemergence), concentration with observed effect
One number for each entry, in µg/mL.

Cc1cc(C)n2nc(S(=O)(=O)Nc3c(C)ccc(Cl)c3C)nc2n1 12
Cc1cc(C)n2nc(S(=O)(=O)Nc3c(F)cccc3Oc3ccc(C(F)(F)F)cc3Cl)nc2n1 400
Cc1cccc(Cl)c1NS(=O)(=O)c1nc2ncc(Cl)cn2n1 400
CC(C)c1ccn2nc(S(=O)(=O)Nc3c(Cl)cccc3Cl)nc2n1 400
COC(=O)c1cccc(C)c1N(Cc1ccccc1)S(=O)(=O)c1nc2nc(C)cc(C)n2n1 400

Quick one: give me minimal effective concentration for each item below, same order please.
1. Cc1ccccc1NS(=O)(=O)c1nc2ncc(Cl)cn2n1
2. Cc1cc(C)n2nc(S(=O)(=O)Nc3c(Cl)cccc3-c3ccccc3)nc2n1
3. Cc1cc(C)n2nc(S(=O)(=O)Nc3ccccc3F)nc2n1

Solution:
400
5
50

* * *

- Test system: corn
- measurement.protocol: Preemergent control of plant species
- Type: in vivo, Zea mays
- measurement.context: Zea mays, pre-emergence, 336 h; 0.25 lb/acre; read-out: percent preemergent control
Criterion: plant injury at 280.212 g/ha strictly less than 40%. Met: y. Not met: n.

Past entries and their recorded results:
compound	class.name
Cc1cccc([N+](=O)[O-])c1NS(=O)(=O)c1nc2nccc(C)n2n1 [Compound 184]	y
CCC(=O)N(c1c(F)cccc1F)S(=O)(=O)c1nc2nc(C)ccn2n1 [Compound 276]	n
Cc1ccn2nc(S(=O)(=O)N(C(=O)C(C)(C)C)c3c(F)cccc3F)nc2n1 [Compound 280]	n
CC(=O)OCc1cccc(Cl)c1NS(=O)(=O)c1nc2nc(C)cc(C)n2n1 [Compound 94]	y
COC(=O)c1cccc(F)c1NS(=O)(=O)c1nc2nc(OC)c(C)cn2n1 [Compound 215]	n
Cc1cc(C)n2nc(S(=O)(=O)Nc3c(F)cccc3C(=O)OC(C)(C)C)nc2n1 [Compound 56]	y

Problem: Please state whether plant injury at 280.212 g/ha is below 40% for COc1cc(C)n2nc(S(=O)(=O)Nc3c(Cl)cccc3Cl)nc2n1 [Compound 178]
Solution: y

Problem: Please state whether plant injury at 280.212 g/ha is below 40% for Cc1ccn2nc(S(=O)(=O)Nc3c(Cl)cccc3Cl)nc2n1 [Compound 143]
Solution: n

* * *

- System: barnyardgrass
- measurement.protocol: Preemergent control of plant species
- Type: in vivo, Echinochloa crusgalli
- measurement.context: Echinochloa crus-galli, pre-emergence, 336 h; 0.25 lb/acre; read-out: percent preemergent control
readout.label: pest or weed control at 280.212 g/ha (%)
Numbers only, in %.

Solved cases (3 shown):
Cc1nc2nc(S(=O)(=O)Nc3c(Cl)cccc3Cl)nn2c(C)c1C 15
Cc1cc(C(F)(F)F)n2nc(S(=O)(=O)Nc3c(F)ccc(C)c3F)nc2n1 100
COc1nc2nc(S(=O)(=O)Nc3c([N+](=O)[O-])ccc(C)c3C)nn2cc1C 0

Quick one: give me pest or weed control at 280.212 g/ha for each item below, same order please.
1. Cc1cc(C)n2nc(S(=O)(=O)Nc3ccc(Cl)cc3C(F)(F)F)nc2n1
2. COC(=O)c1cccc(C)c1NS(=O)(=O)c1nc2nc(OC)c(C)cn2n1
3. Cc1ccn2nc(S(=O)(=O)N(C(=O)c3ccccc3)c3c(F)cccc3F)nc2n1

Solution:
1: 20; 2: 75; 3: 100

Quick one: give me pest or weed control at 280.212 g/ha for each item below, same order please.
1. C=C(C)C(=O)N(c1c(F)cccc1F)S(=O)(=O)c1nc2nc(C)ccn2n1
2. Cc1cc(C)n2nc(S(=O)(=O)Nc3c(Cl)cccc3Cl)nc2n1

Solution:
100
95
